# Tested on: tumor cells
# measurement protocol: Mitochondrial membrane potential, JC-1 (read-out 48 h)
# Type: cell-based
# details: Jily cells, JC-1, 48 h; read-out: Mitochondrial membrane potential (read-out 48 h) Jily
pEC50: −log10 of the molar value.
endpoint name: pEC50

// below: answered compounds
CN1CCN(c2ccc(F)cc2C(=O)c2oc3ccc(Cl)cc3c2N)CC1
< 6.00
CCOc1ccccc1C(=O)c1oc2c(C)cccc2c1N
< 6.00
COc1ccc(OC)c(C(=O)c2oc3ccccc3c2O)c1 [Reference Example A, reference compound]
< 6.00
CCOc1ccc(F)cc1C(=O)c1oc2ccc(Cl)cc2c1N
> 8.00
CCCOc1ccc(F)cc1C(=O)c1sc2ncc([N+](=O)[O-])cc2c1N
< 6.00
O=C(c1cc2cc(OCc3ccccc3)ccc2o1)c1cc(F)ccc1N1CC=CCC1
< 6.00

Looking for the measured pEC50 of `CCOc1ccc(S(=O)(=O)N(C)C)cc1C(=O)c1oc2ccc(Cl)cc2c1N` , can you help? < 6.00

Looking for the measured pEC50 of `CCOc1ccc(F)cc1C(=O)c1cc2cc(OCCOC)ccc2o1` , can you help? 6.00 to 7.00

Looking for the measured pEC50 of `CCOc1c(C)cccc1C(=O)c1oc2ccc(Cl)cc2c1N` , can you help? 6.00 to 7.00
